- Tested on: HSV-1 (E377)
- Assay Name: CPE-inhibition assay against HSV-1 in Vero cell monolayers
- Assay type: cell-based, herpes simplex virus, Type 1
- Recorded Conditions: therapeutic index, MTC divided by MIC50, HSV-1 (E377)
- Description: 2'-Deoxy-4'-thioribonucleosides were tested for antiviral activity against viruses that replicate in mammalian cells growing in cell culture. The Virus Rating (VR) is a standard weighted measurement of antiviral activity which takes into account the degree of inhibition of virus-induced cytopathogenic effects (CPE) and the degree of cytotoxicity produced by the test compound, determined by a modification of the method of Ehrlich et al, Ann. N.Y. Acad. Sci. 130, 5-16 (1965) . […]
Readout Kind: TI

For every listed record, write down its TI.
1. Nc1nc2c(ncn2COCCO)c(=O)[nH]1 [Acyclovir, reference compound]
2. Nc1ncnc2c1ncn2[C@@H]1O[C@H](CO)[C@@H](O)[C@@H]1O [Ara-A, 9-β-D-arabinofuranosyladenine, reference compound]
3. Cc1cn([C@@H]2C[C@H](O)[C@@H](CO)S2)c(=O)[nH]c1=O

**A:**
1: > 441; 2: 5.6; 3: 2.3 -

**Q:** Note down TI recorded for `Cc1cn([C@H]2C[C@H](O)[C@@H](CO)S2)c(=O)[nH]c1=O`
**A:** 3.2 -

====

Assign MCC to each entry below.
- Assay Name: in vitro
- Format: cell-based
- Recorded Conditions: monkey, vero cells
Numbers only, in µg/mL.

[
  {
    "Molecule": "Cc1cn([C@H]2C[C@H](O)[C@@H](CO)S2)c(=O)[nH]c1=O",
    "MCC [µg/mL]": 2.6
  }
]

Next up:
**Q:** Note down MCC recorded for Nc1ncnc2c1ncn2[C@@H]1O[C@H](CO)[C@@H](O)[C@@H]1O [Ara-A, 9-β-D-arabinofuranosyladenine, reference compound]
**A:** 84.8
